target: Eukaryotic system (eukaryotic cytoplasmic ribosome); assay: Eukaryotic translation inhibition, coupled transcription/translation, luciferase detection; format: biochemical; conditions: Table 2; read-out: Translation Inhibition Eukaryotic System IC50

| Compound | Measurement Units | IC50 |
| --- | --- | --- |
| C[C@H](N)[C@H]1O[C@@H](OC2C(O)[C@H](N)CC(N)[C@H]2O[C@H]2OC([C@@H](C)O)[C@@H](O)C(O)C2N)C(O)C1O (stereo partly drawn) | nM | 1490 |
| CN[C@H]1[C@@H](O)C(OC2[C@H](N)CC(N)[C@@H](O[C@H]3OC(C(C)O)[C@@H](O)[C@H](O)C3N)[C@@H]2O)OCC1(C)O (stereo partly drawn) [G418, reference compound] | nM | 2000 |
| C[C@@H](O)C1O[C@H](O[C@@H]2C(N)C[C@@H](NC(=O)[C@@H](O)CCN)[C@@H](O)C2O[C@@H]2O[C@H](CN)[C@H](O)C2O)[C@@H](N)C(O)[C@@H]1O (stereo partly drawn) [NB84, reference compound] | nM | 2800 |

----------
system: Eukaryotic system (eukaryotic cytoplasmic ribosome); experiment: Eukaryotic translation inhibition, coupled transcription/translation, luciferase detection; type: biochemical; settings: ratio of eukaryotic to prokaryotic translation inhibition IC50
Assay Readout: Prokaryotic versus Eukaryotic selectivity IC50^Euk/IC50^Pro

| Compound | Value Observed |
| --- | --- |
| CC(N)C1OC(OC2C(O)C(NC(=O)C(O)CCN)CC(N)C2OC2OC(C(C)O)C(O)C(O)C2N)C(O)C1O (centres unmarked) | 0.4 |
| C[C@@H](O)C1O[C@H](O[C@@H]2C(N)C[C@@H](N)C(O)[C@H]2O[C@@H]2O[C@H]([C@@H](C)N)[C@H](O)C2O)C(N)[C@@H](O)[C@@H]1O (some centres unmarked) | 4.3 |
| C[C@H](N)[C@H]1O[C@@H](OC2C(O)[C@H](NC(=O)[C@@H](O)CCN)CC(N)[C@H]2O[C@H]2OC(CO)[C@@H](O)C(O)C2N)C(O)C1O (some centres unmarked) | 2.3 |
| NC[C@H]1O[C@@H](O[C@@H]2C(O)[C@H](N)CC(N)[C@H]2O[C@H]2OC(CO)[C@@H](O)[C@H](O)C2N)C(O)[C@H]1O (some centres unmarked) [NB30, reference compound] | 68 |

----------
assay: Cell toxicity LC50 in HEK-293 cells; type: cell-based; details: human; Table 2; read-out: Cell toxicity LC50 HEK-293
Assay Readout: CC50 (µM)

| Molecule | Assay Readout | Measurement Units | Value Observed |
| --- | --- | --- | --- |
| CN[C@H]1[C@@H](O)C(OC2[C@H](N)CC(N)[C@@H](O[C@H]3OC(C(C)O)[C@@H](O)[C@H](O)C3N)[C@@H]2O)OCC1(C)O (stereo partly shown) [G418, reference compound] | CC50 | µM | 1310 |

----------
system: Eukaryotic system (eukaryotic cytoplasmic ribosome); experiment: Eukaryotic translation inhibition, coupled transcription/translation, luciferase detection; assay type: biochemical; settings: ratio of eukaryotic to prokaryotic translation inhibition IC50
Assay Readout: Prokaryotic versus Eukaryotic selectivity IC50^Euk/IC50^Pro

| Compound | Value Observed |
| --- | --- |
| C[C@H](N)[C@H]1O[C@@H](OC2C(O)[C@H](N)CC(N)[C@H]2O[C@H]2OC([C@@H](C)O)[C@@H](O)C(O)C2N)C(O)C1O (stereo partly drawn) [NB124] | 1.3 |
| C[C@@H](N)[C@H]1O[C@@H](OC2C(O)[C@H](N)CC(N)[C@H]2O[C@H]2OC(CO)[C@@H](O)C(O)C2N)C(O)C1O (stereo partly drawn) [NB119] | 13 |
| C[C@@H](O)C1O[C@H](O[C@@H]2C(N)C[C@@H](NC(=O)[C@@H](O)CCN)[C@@H](O)C2O[C@@H]2O[C@H](CN)[C@H](O)C2O)[C@@H](N)C(O)[C@@H]1O (stereo partly drawn) [NB84, reference compound] | 2.9 |

Cited source for all entries: patent US11865128B2
